# System: RXRa DBDmut IVT, anti-RXR (DBD mutation: RXRa K156A/R161A, NR concentration 90 nM)
# Measurement protocol: PBM binding z-score (relative to random genomic background probes); higher = stronger binding; sequences stand for … in GC…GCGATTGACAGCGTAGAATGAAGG
I'd appreciate it if you could label each record using PBM binding z-score and these ranges: band A = under 0.2, band B = from 0.2 up to 1, band C = 1 and over

Input: Using the reported PBM binding z-score, which band applies to ACTATTAGTCGACTTAGGGCAACCGATACGACGC ?
Output: band B

---

# System: RARb homodimer (NR concentration 270 nM)
# Measurement protocol: PBM binding z-score (relative to random genomic background probes); higher = stronger binding; sequences stand for … in GC…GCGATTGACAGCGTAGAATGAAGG
Entry flag: YES if PBM binding z-score reaches 3; NO if it does not.

Solved entries (count: 3):
INSERT INTO measurements (primary_sequence, label_class) VALUES
  ('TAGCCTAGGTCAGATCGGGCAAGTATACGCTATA', 'NO'),
  ('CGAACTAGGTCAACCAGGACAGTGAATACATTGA', 'YES'),
  ('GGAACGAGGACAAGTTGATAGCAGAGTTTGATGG', 'NO');

Input: Identify whether the reported PBM binding z-score of the following sequence is 3 or greater: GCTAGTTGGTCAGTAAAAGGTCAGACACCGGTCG
Output: YES

Input: Quick check, PBM binding z-score >= 3? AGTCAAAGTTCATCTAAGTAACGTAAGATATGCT
Output: YES

Input: Can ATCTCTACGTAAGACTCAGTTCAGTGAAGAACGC be said to have PBM binding z-score at or above 3?
Output: NO

Input: Check this sequence for PBM binding z-score at or above 3: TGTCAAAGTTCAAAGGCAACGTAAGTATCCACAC
Output: YES

Input: Form field: PBM binding z-score at least 3? Entry: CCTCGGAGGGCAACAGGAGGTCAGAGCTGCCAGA
Output: YES

Input: Quick check: does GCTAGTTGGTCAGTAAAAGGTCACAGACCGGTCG have PBM binding z-score greater than or equal to 3?
Output: YES

Input: Say whether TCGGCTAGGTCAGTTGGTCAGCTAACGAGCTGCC shows PBM binding z-score of 3 or more.
Output: NO

Input: Can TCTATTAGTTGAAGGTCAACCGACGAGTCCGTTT be said to have PBM binding z-score at or above 3?
Output: YES

Input: Is it the case that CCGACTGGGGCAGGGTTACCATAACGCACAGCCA has PBM binding z-score reaching or exceeding 3?
Output: NO

Input: Please indicate if the recorded PBM binding z-score for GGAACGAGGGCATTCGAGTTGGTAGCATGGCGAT meets or exceeds 3.
Output: NO

Input: Is reported PBM binding z-score greater than or equal to 3 here: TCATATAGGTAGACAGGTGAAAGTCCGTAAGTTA
Output: NO

---

# System: RXRa homodimer (NR concentration 180 nM)
# Measurement protocol: PBM binding z-score (relative to random genomic background probes); higher = stronger binding; sequences stand for … in GC…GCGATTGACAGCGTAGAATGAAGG
Please note: t applies when PBM binding z-score is 1 or greater, and f applies otherwise.

Known results for sequences:
INSERT INTO assay_data (primary_sequence, label_class) VALUES
  ('GTGACTGGGGCAAAGCAGGTTACCATAAGGTTGG', 'f'),
  ('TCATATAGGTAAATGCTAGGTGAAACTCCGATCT', 'f'),
  ('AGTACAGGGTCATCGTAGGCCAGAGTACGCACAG', 't'),
  ('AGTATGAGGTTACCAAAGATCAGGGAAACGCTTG', 't'),
  ('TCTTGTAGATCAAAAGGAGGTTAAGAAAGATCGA', 't');

Input: For this sequence, is measured PBM binding z-score 1 or higher? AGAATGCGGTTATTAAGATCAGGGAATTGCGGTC
Output: f

Input: Is the recorded value of PBM binding z-score equal to or greater than 1 for this sequence? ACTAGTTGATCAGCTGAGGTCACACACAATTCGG
Output: t

Input: Is PBM binding z-score for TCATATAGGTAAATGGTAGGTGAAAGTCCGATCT at or above 1?
Output: f

Input: Is PBM binding z-score for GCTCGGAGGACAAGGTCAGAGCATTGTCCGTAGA at or above 1?
Output: t

---

# System: PPARg:RXRa DBDmut IVT, anti-RXR (DBD mutation: RXRa K156A/R161A, NR concentration 270 nM, RXRa partner concentration 90 nM)
# Measurement protocol: PBM binding z-score (relative to random genomic background probes); higher = stronger binding; sequences stand for … in GC…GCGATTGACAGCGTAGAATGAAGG
Please enter Met where PBM binding z-score is greater than or equal to 2, and Not met where it is lower.

Record excerpt, results attached:
INSERT INTO results (primary_sequence, label_class) VALUES
  ('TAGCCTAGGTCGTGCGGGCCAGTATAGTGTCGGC', 'Not met'),
  ('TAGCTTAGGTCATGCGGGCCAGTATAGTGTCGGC', 'Not met'),
  ('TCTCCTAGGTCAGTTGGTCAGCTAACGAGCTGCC', 'Met');

Input: Check this sequence for PBM binding z-score at or above 2: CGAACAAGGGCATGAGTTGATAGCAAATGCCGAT
Output: Not met

Input: Does PBM binding z-score meet or surpass 2 for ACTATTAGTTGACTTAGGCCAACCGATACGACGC ?
Output: Not met

Input: Hi team, for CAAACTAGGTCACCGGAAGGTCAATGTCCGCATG , is the recorded PBM binding z-score at or above 2?
Output: Met

Input: Evaluate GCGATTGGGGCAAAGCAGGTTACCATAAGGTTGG : PBM binding z-score at minimum 2?
Output: Met

Input: Say whether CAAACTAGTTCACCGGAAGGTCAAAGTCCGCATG shows PBM binding z-score of 2 or more.
Output: Met

Input: // inclusive: PBM binding z-score at least 2? input: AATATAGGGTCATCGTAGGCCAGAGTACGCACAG
Output: Met

Input: Answer whether PBM binding z-score of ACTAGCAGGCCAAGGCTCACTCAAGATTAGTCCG is greater than or equal to 2.
Output: Not met

---

# System: PPARg:RXRa IVT, anti-PPARg (NR concentration 270 nM, RXRa partner concentration 90 nM)
# Measurement protocol: PBM binding z-score (relative to random genomic background probes); higher = stronger binding; sequences stand for … in GC…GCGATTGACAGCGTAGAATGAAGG
Please respond with reported PBM binding z-score for every item in the list.
One number for each entry.

Below are worked cases with known answers.
INSERT INTO results (primary_sequence, measured_parameter, measured_result) VALUES
  ('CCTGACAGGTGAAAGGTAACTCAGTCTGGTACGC', 'PBM binding z-score', 2.82),
  ('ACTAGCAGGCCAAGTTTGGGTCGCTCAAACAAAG', 'PBM binding z-score', 0.332),
  ('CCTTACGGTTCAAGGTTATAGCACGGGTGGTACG', 'PBM binding z-score', 0.211),
  ('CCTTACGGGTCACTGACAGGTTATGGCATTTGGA', 'PBM binding z-score', 3.8),
  ('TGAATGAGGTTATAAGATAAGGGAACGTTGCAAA', 'PBM binding z-score', 1.42),
  ('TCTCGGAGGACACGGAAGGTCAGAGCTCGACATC', 'PBM binding z-score', 1.13),
  ('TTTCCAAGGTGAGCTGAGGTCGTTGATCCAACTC', 'PBM binding z-score', 2.2),
  ('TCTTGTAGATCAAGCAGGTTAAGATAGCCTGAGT', 'PBM binding z-score', 0.733);

Batch request: PBM binding z-score per item, same order as input.
1. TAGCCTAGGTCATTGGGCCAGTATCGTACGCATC
2. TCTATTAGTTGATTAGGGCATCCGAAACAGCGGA
3. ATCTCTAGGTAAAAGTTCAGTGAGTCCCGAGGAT
4. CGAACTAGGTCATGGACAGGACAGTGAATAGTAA

Output:
1. 3.95
2. 1.16
3. 3.88
4. 8.31

---

# Tested on: FXR:RXRa (NR concentration 270 nM, RXRa partner concentration 90 nM)
# Measurement protocol: PBM binding z-score (relative to random genomic background probes); higher = stronger binding; sequences stand for … in GC…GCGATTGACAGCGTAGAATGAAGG
Provide the recorded PBM binding z-score for the entries that follow.
Numbers only.

INSERT INTO measurements (primary_sequence, test_target, measured_result) VALUES
  ('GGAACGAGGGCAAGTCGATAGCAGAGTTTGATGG', 'FXR:RXRa (NR concentration 270 nM, RXRa partner concentration 90 nM)', 0.383),
  ('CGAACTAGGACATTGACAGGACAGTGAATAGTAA', 'FXR:RXRa (NR concentration 270 nM, RXRa partner concentration 90 nM)', -0.0957),
  ('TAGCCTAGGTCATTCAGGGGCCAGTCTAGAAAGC', 'FXR:RXRa (NR concentration 270 nM, RXRa partner concentration 90 nM)', 4.72),
  ('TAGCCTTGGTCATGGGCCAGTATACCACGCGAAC', 'FXR:RXRa (NR concentration 270 nM, RXRa partner concentration 90 nM)', -0.772),
  ('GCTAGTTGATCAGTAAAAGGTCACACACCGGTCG', 'FXR:RXRa (NR concentration 270 nM, RXRa partner concentration 90 nM)', 3.16),
  ('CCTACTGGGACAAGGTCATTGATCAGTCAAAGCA', 'FXR:RXRa (NR concentration 270 nM, RXRa partner concentration 90 nM)', 3.62);

Value sought for every listed sequence: PBM binding z-score.
1. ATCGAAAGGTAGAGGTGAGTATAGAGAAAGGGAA
2. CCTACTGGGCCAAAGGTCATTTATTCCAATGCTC
3. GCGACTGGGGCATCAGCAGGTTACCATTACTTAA
4. ATCGAAAGGTGGAAGGTGAGTATACCCACCCGAA
5. GCTGTTAGGTCAGGTTGGTCAGCTAACGGGTACG
6. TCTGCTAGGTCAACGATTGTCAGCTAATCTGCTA

Output:
1: 0.781; 2: 4.91; 3: -0.552; 4: 0.216; 5: 1.95; 6: 2.81

Could you report PBM binding z-score for every entry in the following list?
1. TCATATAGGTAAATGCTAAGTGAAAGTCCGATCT
2. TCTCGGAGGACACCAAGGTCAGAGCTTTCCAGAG
3. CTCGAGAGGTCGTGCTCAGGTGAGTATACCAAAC
4. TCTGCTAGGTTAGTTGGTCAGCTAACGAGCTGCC
5. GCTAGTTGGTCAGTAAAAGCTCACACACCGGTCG

Output:
1.1
1.66
3.66
-0.522
-0.135
